system: arterial blood pressure, conscious rat; assay: Effects on blood pressure in vivo, conscious rat; parameters: species or system Sprague-Dawley rats; conditions: 6 mg/kg peroral, 60 min
quantityMeasured: Reduction in diastolic pressure, % of initial value

molecule	assayResult
CC(O)(C(=O)Nc1ccc(C(=O)c2ccccc2)s1)C(F)(F)F (stereo not shown)	2 % of initial value
CC(O)(C(=O)Nc1ncc(C(=O)c2ccccc2)s1)C(F)(F)F (stereo not shown)	5 % of initial value
CC(O)(C(=O)Nc1ccc(S(=O)(=O)c2ccccc2)s1)C(F)(F)F (stereo not shown)	4 % of initial value

Turning now to a further record.
Qu. Could you tell me which Reduction in diastolic pressure, % of initial value is on file for CC(O)(C(=O)Nc1nnc(C(=O)c2ccccc2)s1)C(F)(F)F (stereo not shown) ?
Ans. 2 % of initial value
